Where these numbers come from: patent US20230002496A1

Target: T1, human GM-CSFRα, full length on cells (human, UniProt P15509 23-400)
T1 sequence: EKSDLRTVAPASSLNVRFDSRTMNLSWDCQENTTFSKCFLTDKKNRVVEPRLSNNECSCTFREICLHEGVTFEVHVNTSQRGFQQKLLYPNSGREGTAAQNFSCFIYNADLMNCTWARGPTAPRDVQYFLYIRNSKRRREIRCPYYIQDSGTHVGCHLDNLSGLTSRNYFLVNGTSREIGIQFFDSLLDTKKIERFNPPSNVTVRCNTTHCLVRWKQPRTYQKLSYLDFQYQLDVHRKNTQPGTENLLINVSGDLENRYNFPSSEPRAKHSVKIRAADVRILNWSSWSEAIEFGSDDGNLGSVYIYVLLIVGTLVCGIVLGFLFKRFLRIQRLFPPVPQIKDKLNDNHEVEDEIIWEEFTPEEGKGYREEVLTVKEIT
Test: cell-based or functional assay
// returns not met unless IC50, TF-1 cell proliferation is strictly below 0.08 µg/mL, in which case met

query: Input E35-scFv LY32P (scFv, V domains shown) VH: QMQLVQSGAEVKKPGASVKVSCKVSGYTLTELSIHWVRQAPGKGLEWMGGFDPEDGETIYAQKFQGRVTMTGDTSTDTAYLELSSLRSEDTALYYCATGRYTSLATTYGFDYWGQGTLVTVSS VL: EIVMTQSPATLSLSPGERATLSCRASQSVSSPLAWYQQKPGQAPRLLIYGASSRATGIPDRFSGSGSGTDFTLTISRLEPEDFAVYYCQQYDNWPYTFGQGTKLEIK ; condition: IC50, TF-1 cell proliferation strictly below 0.08 µg/mL. Does it hold?
result: not met
